Biological target: Bromodomain adjacent to zinc finger domain protein 2B (Homo sapiens)
Assay: qHTS Assay for Inhibitors of BAZ2B; also: nearly all actives have a fitted effect of over 60% in size
Settings: AlphaScreen BAZ2B-H3K14Ac peptide displacement; series mostly up to 114 µM
Source text: BAZ2B (bromodomain adjacent to zinc finger domain, 2B) belongs to a family of ubiquitously expressed bromodomain containing proteins, which biological function has not yet been elucidated. […] Yasgar, et al. Compound Management for Quantitative High-Throughput Screening. […] Inglese, et al. Quantitative high-throughput screening: a titration-based approach that efficiently identifies biological activities in large chemical libraries. […]
About 16,000 (4.4%) of roughly 360,000 compounds were called active. Another 9% or so got no clear call; they are omitted. Calls follow the shape of the dose curve; as a rule, active = well fitted inhibition curve with a large enough effect; inconclusive = small, poorly fitted or top-dose-only effect; inactive = no such curve, though single readings can be large or run the other way. The full list was thinned out, with actives kept by preference.
API: response.call in active, inactive

Query: recorded result category for `CCOC(=O)c1cc2c(=O)n3ccccc3nc2n(Cc2ccco2)c1=NC(=O)c1ccc(F)cc1` in this test
inactive

Please share the test call associated with `O=C(NNS(=O)(=O)c1ccc(F)cc1)c1cnccn1` .
active

Recorded test outcome, item `Cc1cc2c(cc1S(=O)(=O)CCC(=O)Nc1ccc(OC(F)(F)F)cc1)OCC(=O)N2`
inactive

I'd appreciate the recorded outcome for `Cn1cc(Cl)c(C(=O)NNC(=S)Nc2cccc(Cl)c2)n1` from this test.
inactive

Hi, sorry to bother you, what did the test record for `Cc1cccc(-n2cnc(C(=O)NNC(=S)Nc3ccccc3)c2)n1` ?
active

Assay outcome for `CCN(CC)c1ccc(NC(=O)Cn2nc3c(cc2=O)CCCC3)c(C)c1` : what was it?
inactive

Answer briefly: the call reported for `CCc1cc2c(cc3c(=O)n(CC(=O)N4CCN(c5cc(Cl)ccc5C)CC4)ncn32)s1` in this assay.
inactive

Write down the call the test reported for this molecule. Item: `CCOc1ccc(Nc2nc3c(S(=O)(=O)c4cccc(Cl)c4)nnn3c3ccsc23)cc1`
inactive

Kindly provide the recorded test outcome for the following molecule: `COc1ccc(Cn2cc(C(=O)c3ccc(C)cc3)c(=O)c3cc(OC)c(OC)cc32)cc1`
inactive

Write down the call the test reported for this molecule. Item: `CSc1ccccc1NC(=O)CCS(=O)(=O)c1nc(-c2cccs2)cc(C(F)(F)F)n1`
inactive
